Biological target: kinases (Homo sapiens)
Construct: purchased Eurofins/DiscoveRx; host or cells: E. coli BL21-derived host (T7 phage display) for most kinases; HEK-293 for the rest
Sequence (P16234 24-1089): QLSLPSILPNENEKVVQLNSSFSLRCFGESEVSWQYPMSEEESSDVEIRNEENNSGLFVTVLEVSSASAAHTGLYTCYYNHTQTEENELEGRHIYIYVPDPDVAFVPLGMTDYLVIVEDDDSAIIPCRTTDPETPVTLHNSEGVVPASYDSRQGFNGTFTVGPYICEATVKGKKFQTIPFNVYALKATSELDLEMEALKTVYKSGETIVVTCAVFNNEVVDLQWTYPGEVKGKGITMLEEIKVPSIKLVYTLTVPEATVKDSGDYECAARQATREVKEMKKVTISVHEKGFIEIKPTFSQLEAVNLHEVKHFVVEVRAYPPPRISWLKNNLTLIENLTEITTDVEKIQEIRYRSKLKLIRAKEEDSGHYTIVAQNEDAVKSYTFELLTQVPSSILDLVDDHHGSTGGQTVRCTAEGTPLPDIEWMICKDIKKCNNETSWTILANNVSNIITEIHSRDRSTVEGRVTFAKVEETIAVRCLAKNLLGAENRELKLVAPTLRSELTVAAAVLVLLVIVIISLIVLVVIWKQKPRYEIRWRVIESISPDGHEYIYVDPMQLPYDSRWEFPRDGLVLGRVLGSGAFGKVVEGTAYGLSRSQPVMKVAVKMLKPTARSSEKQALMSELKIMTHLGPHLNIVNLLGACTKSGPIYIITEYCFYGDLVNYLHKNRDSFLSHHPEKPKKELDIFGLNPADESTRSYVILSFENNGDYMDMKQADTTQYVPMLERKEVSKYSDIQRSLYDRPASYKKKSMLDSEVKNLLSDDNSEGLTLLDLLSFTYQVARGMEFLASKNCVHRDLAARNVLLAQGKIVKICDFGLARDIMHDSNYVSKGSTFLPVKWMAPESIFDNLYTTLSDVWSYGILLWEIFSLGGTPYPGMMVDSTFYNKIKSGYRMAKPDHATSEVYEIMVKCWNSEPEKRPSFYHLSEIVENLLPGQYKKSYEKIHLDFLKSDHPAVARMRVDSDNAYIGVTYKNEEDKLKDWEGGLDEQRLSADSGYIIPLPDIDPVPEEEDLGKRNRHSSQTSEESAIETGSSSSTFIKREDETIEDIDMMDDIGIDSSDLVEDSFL
Experiment: KINOMEscan kinase binding assay (Eurofins/DiscoveRx), % Ctrl
Conditions: 1 μM; PDGFRA

| CHEMICAL_STRING | MEASURE_UNIT | % Ctrl, PDGFRA |
| --- | --- | --- |
| Cc1cc2c([nH]1)/C=C1\C(=O)Nc3ccc(nc31)-c1ccccc1OCCCNC2=O | % Ctrl | 100 |
| Cc1cc2c([nH]1)/C=C1\C(=O)Nc3ccc(cc31)-c1ccnn1CCOCCNC2=O | % Ctrl | 89 |
| Cc1cc2c([nH]1)/C=C1\C(=O)Nc3ccc(cc31)CN(C)C(=O)COCCNC2=O | % Ctrl | 95 |
| Cc1cc2c([nH]1)/C=C1\C(=O)Nc3cc(Cl)c(cc31)OCCOCCN(C)C2=O | % Ctrl | 7.7 |
| Cc1cc2c([nH]1)/C=C1\C(=O)Nc3ccc(cc31)OCCOCCNC2=O | % Ctrl | 100 |
| Cc1cc2c([nH]1)/C=C1\C(=O)Nc3cc(Cl)c(cc31)OCCO[C@@H](C(=O)N(C)C)CN(C)C2=O | % Ctrl | 72 |
| Cc1cc2c([nH]1)/C=C1\C(=O)Nc3cnc(cc31)-c1cnn(C)c1COCCNC2=O | % Ctrl | 100 |
| Cc1cc2c([nH]1)/C=C1\C(=O)Nc3cc(Cl)c(cc31)OCCO[C@@H](C(=O)NC1CCNCC1)CN(C)C2=O | % Ctrl | 72 |
| Cc1cc2c([nH]1)/C=C1\C(=O)Nc3ccc(cc31)-c1c(noc1C)COCCN(C)C2=O | % Ctrl | 89 |
| Cc1cc2c([nH]1)/C=C1\C(=O)Nc3ccc(cc31)-c1ccnn1CCOCCN(C)C2=O | % Ctrl | 19 |
| Cc1cc2c([nH]1)/C=C1\C(=O)Nc3ccc(cc31)-c1cnn(C)c1COCCN(C)C2=O | % Ctrl | 7.9 |
| Cc1cc2c([nH]1)/C=C1\C(=O)Nc3ccc(cc31)O[C@@H](C)COCCN(C)C2=O | % Ctrl | 95 |
| Cc1cc2c([nH]1)/C=C1\C(=O)Nc3ccc(cc31)-c1cnn(C)c1CN(C)CCN(C)C2=O | % Ctrl | 1.2 |
